pIC50: −log10 of the molar value.
Here's a roundup of pIC50 values tested on Cyclin-dependent kinase 9 (Homo sapiens, UniProt P50750), taken from various published works.
Sequence (P50750 whole entry): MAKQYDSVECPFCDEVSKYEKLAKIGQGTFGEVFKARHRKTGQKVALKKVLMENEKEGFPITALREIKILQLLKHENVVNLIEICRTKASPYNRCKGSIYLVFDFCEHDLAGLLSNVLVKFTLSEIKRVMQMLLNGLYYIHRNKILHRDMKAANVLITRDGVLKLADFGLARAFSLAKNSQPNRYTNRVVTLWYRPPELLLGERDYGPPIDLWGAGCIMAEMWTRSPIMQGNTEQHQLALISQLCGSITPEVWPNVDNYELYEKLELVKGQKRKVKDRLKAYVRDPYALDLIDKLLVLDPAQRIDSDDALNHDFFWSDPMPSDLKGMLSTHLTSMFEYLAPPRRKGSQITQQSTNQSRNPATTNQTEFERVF

COc1cc2c(Nc3ccc(NC(=O)c4ccccc4)cc3)ncnc2cc1OCC(N)=O :: < 4.52

Consider the compound O=C(CCCNC(=O)c1ccc(NC(=O)c2n[nH]cc2NC(=O)c2c(F)cccc2F)cc1)NO . State its measured pIC50. > 7.00

Consider the compound COc1cc(C(=O)Nc2ccc(NC(=O)c3ccccc3)cc2)c(N)cc1O . State its measured pIC50. < 4.52

Consider the compound COc1cc2c(Nc3ccc(NC(=O)c4ccccc4)cc3)nc(C)nc2cc1O . State its measured pIC50. < 4.52

Consider the compound Cc1n[nH]c2cc(Nc3nc(NC4CC4)c4occc4n3)ccc12 . State its measured pIC50. < 5.00

Consider the compound Nc1cc(Cl)c(Cl)cc1NC(=O)c1ccc(NC(=O)c2n[nH]cc2NC(=O)c2c(F)cccc2F)cc1 . State its measured pIC50. > 7.00

Consider the compound O=C(CNC(=O)c1ccc(NC(=O)c2n[nH]cc2NC(=O)c2c(F)cccc2F)cc1)NO . State its measured pIC50. > 7.00
